Target: human EGFR WT (NIH/3T3 cells, EGF-induced) (Homo sapiens)
Sequence (P00533 25-1210): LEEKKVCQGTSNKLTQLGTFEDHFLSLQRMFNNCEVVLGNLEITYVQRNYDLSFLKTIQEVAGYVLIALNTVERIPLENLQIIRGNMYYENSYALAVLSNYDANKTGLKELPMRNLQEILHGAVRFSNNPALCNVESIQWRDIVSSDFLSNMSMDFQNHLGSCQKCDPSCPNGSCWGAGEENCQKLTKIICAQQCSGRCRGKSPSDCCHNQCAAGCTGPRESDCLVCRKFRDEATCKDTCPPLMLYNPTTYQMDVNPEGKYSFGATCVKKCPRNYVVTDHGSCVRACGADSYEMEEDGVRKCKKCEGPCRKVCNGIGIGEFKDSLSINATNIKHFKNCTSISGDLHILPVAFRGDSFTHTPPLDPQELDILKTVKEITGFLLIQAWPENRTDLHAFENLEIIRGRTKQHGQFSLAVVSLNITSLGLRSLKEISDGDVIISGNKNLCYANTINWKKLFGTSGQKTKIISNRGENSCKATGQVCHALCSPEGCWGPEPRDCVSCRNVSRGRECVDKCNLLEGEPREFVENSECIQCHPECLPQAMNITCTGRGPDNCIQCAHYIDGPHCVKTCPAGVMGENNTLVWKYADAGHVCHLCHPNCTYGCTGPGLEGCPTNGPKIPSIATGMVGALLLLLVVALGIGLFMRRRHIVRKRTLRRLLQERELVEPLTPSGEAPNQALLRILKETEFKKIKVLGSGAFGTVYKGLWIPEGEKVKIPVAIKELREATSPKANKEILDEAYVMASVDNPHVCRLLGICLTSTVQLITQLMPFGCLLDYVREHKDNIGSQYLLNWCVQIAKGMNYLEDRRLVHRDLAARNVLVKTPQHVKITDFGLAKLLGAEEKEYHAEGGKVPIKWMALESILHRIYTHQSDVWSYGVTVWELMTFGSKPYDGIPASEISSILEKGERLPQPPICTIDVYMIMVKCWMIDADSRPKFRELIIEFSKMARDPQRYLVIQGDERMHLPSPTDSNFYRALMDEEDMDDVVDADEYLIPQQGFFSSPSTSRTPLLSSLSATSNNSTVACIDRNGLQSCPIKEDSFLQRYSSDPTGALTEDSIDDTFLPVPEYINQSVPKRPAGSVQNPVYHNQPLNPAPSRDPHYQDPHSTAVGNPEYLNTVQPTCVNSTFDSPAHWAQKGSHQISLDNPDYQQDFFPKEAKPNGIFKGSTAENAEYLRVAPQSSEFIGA
Test: EGFR target modulation in engineered NIH/3T3 cell lines (phospho-EGFR Y1068 AlphaLISA), EGFR WT
Type: cell-based
Details: engineered NIH/3T3 cells, read-out: NIH3T3 IC50 (μM) EGFR (WT)
Measured IC50, listed per entry for reference.
Measured Property: IC50 (µM)

> print(dat)
                                   compound  censoring.operator  reading
1  Cc1cccc2nc(NC(=O)c3ccccn3)n(C3CCCCN(C(=O)/C=C/CN(C)C)C3)c12 (centres unmarked)                   >       10
2  C=CC(=O)N1CCCC(n2c(NC(=O)c3cccc(C(F)(F)F)c3)nc3c2CCN(S(C)(=O)=O)C3)C1 (centres unmarked)                   >     2.77
3  C=CC(=O)N1CCCCC(n2c(NC(=O)c3ccccc3)nc3cccc(C(=O)NCCC(=O)O)c32)C1 (centres unmarked)                   =      8.2
4  C=CC(=O)N1CCCC(n2c(NC(=O)c3cccc(C(F)(F)F)c3)nc3c2CCN(C(=O)OC)C3)C1 (centres unmarked)                   >       10
5  Cc1cccc2nc(NC(=O)c3cccc(F)c3)n(C3CCCCN(C(=O)/C=C/CN(C)C)C3)c12 (centres unmarked)                   =     0.32
6  C=CC(=O)N1CCCC[C@@H](n2c(NC(=O)c3ccccc3)nc3cccc(CO)c32)C1                   =    0.311
7  C=CC(=O)N1CCCC[C@@H](n2c(NC(=O)c3ccccc3)nc3cc(CN4CCCC4)cc(C)c32)C1                   =    0.047
8  C=CC(=O)N1CCCC[C@@H](n2c(NC(=O)c3ccccc3)nc3cc(COCCOC)cc(C)c32)C1                   =    0.186

====

Molecular target: human EGFR L858R/T790M (NIH/3T3 cells) (Homo sapiens, UniProt P00533, L858R/T790M)
Sequence (P00533 25-1210 T790M/L858R): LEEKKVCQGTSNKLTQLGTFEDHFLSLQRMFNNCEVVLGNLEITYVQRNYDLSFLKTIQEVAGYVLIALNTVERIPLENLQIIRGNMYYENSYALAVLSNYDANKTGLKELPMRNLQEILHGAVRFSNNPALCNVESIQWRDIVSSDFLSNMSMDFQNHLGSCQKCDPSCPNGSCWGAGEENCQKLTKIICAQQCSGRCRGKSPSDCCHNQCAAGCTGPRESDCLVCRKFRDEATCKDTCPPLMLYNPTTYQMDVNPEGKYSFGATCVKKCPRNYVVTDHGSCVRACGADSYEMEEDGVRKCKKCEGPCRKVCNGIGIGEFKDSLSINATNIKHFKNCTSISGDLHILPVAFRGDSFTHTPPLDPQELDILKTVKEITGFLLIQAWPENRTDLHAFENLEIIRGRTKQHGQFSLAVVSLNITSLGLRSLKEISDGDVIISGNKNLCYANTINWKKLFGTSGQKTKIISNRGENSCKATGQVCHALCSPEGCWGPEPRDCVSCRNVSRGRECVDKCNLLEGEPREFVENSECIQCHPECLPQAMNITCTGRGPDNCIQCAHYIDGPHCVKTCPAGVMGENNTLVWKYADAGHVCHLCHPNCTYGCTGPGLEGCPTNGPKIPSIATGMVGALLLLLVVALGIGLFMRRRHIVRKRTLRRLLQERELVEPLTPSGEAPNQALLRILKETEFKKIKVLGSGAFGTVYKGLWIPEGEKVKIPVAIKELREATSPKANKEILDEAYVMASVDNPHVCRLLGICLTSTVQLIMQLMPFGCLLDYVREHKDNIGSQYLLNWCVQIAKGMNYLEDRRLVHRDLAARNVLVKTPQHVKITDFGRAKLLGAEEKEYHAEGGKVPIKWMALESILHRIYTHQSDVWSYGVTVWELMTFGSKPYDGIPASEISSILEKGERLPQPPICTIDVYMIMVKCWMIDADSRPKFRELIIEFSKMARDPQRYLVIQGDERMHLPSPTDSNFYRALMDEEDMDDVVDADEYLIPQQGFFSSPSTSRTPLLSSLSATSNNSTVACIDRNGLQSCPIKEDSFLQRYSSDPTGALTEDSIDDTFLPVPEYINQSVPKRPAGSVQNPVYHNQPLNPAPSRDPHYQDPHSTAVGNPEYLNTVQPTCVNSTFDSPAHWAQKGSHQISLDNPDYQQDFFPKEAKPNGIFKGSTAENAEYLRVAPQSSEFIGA
Assay: EGFR target modulation in engineered NIH/3T3 cell lines (phospho-EGFR Y1068 AlphaLISA), EGFR L858R/T790M
Type: cell-based
Details: engineered NIH/3T3 cells, read-out: NIH3T3 IC50 (μM) EGFR (L858R/T790M)
Description: EGFR Target Modulation in Engineered NIH/3T3 Cell Lines Tissue Culture. The cells were harvested with 0.05% Trypsin/EDTA (Hyclone #SH30236.01), re-suspended in 5% FBS/DMEM Pen/Strep without Puromycin and plated at 9,000 cells per well in 50 μl of media in a 384-well black plate with clear bottoms (Greiner #789068G). […] With these parameters, the IC50's for each compound in each cell line was calculated using non-linear curve fitting analysis.
Entries annotated with measured IC50
Measured Property: IC50 (µM)

> print(dat)
                                    molecule  censoring.operator  reading
 1  Cc1cccc2nc(NC(=O)c3cccc(C(F)(F)F)c3)n(C3CCCCN(C(=O)/C=C/CN(C)C)C3)c12 (centres unmarked) [Example 17-25]                   <    0.001
 2  Cc1cccc2nc(NC(=O)c3ccnc(Cl)c3)n([C@@H]3CCCCN(C(=O)/C=C/CN(C)C)C3)c12 [Example 17-73]                   <    0.001
 3  CO[C@@H]1CCN(C/C=C/C(=O)N2CCCC[C@@H](n3c(NC(=O)c4ccnc(C)c4)nc4cccc(Cl)c43)C2)C1 [Example 3-4]                   =    0.005
 4  C=CC(=O)N1CCCC(n2c(NC(=O)c3cccc(C(F)(F)F)c3)nc3c2CCN(S(C)(=O)=O)C3)C1 (centres unmarked) [Example 17-168]                   =    0.072
 5  C=CC(=O)N1CCC[C@@H](n2c(NC(=O)c3cccc(C(F)(F)F)c3)nc3cc(COCC)ccc32)C1 [Example 17-123]                   =    0.017
 6  Cc1cccc2nc(NC(=O)c3ccccc3)n(C3CCCCN(C(=O)/C=C/CN(C)C)C3)c12 (centres unmarked) [Example 17-40]                   =    0.008
 7  Cc1cc(C(=O)Nc2nc3cccc(Cl)c3n2[C@@H]2CCCCN(C(=O)/C=C/CN3CC[C@H](O)C3)C2)ccn1 [Example 3-7]                   =    0.021
 8  C=CC(=O)N1CCCC[C@@H](n2c(NC(=O)c3ccnc(C)c3)nc3cc(CN4CCS(=O)(=O)CC4)cc(C)c32)C1 [Example 17-155]                   =    0.002
 9  C=CC(=O)N1CCCC[C@@H](n2c(NC(=O)c3cc(C)nc(C)c3)nc3cc(CN4CCCC4)cc(C)c32)C1 [Example 17-113]                   =    0.001
10  C=CC(=O)N1CCCC[C@@H](n2c(NC(=O)c3ccnnc3)nc3cccc(Cl)c32)C1 [Example 17-15]                   =    0.006
11  C=CC(=O)N1CCCC[C@@H](n2c(NC(=O)c3ccnc(C)c3)nc3cc(CN4CCCCC4)cc(C)c32)C1 [Example 17-144]                   <    0.001
12  C=CC(=O)N1CCC[C@@H](n2c(NC(=O)c3cccc(C(F)(F)F)c3)nc3cc(CN(C)C(C)=O)ccc32)C1 [Example 17-119]                   =    0.008
13  C=CC(=O)N1CCCC[C@@H](n2c(NC(=O)c3ccnc(C)c3)nc3cc(CN4CC[C@H](OC)C4)cc(C)c32)C1 [Example 17-149]                   <    0.001
14  Cc1cc(C(=O)Nc2nc3cccc(C)c3n2C2CCCCN(C(=O)/C=C/CN(C)C)C2)oc1C (centres unmarked) [Example 17-59]                   =    0.019
15  C=CC(=O)N1CCCC(n2c(NC(=O)c3cccc(C(F)(F)F)c3)nc3c2CN(C(C)=O)CC3)C1 (centres unmarked) [Example 17-172]                   =    0.173
16  Cc1cccc2nc(NC(=O)c3ccc4ccccc4c3)n(C3CCCCN(C(=O)/C=C/CN(C)C)C3)c12 (centres unmarked) [Example 17-66]                   =    0.009
17  Cc1ncc(C(=O)Nc2nc3cccc(C)c3n2C2CCCCN(C(=O)/C=C/CN(C)C)C2)s1 (single isomer, unassigned) [Example 21-8B]                   =    0.002
18  CN(C)C/C=C/C(=O)N1CCCC[C@@H](n2c(NC(=O)c3ccnnc3)nc3cccc(Cl)c32)C1 [Example 17-16]                   =    0.017
19  C=CC(=O)N1CCCC[C@@H](n2c(NC(=O)c3ccnc(C)c3)nc3cc(CN4CCC4)cc(C)c32)C1 [Example 17-145]                   =    0.001
20  Cc1cccc2nc(NC(=O)c3ccnc(C(F)(F)F)c3)n([C@@H]3CCCCN(C(=O)/C=C/CN(C)C)C3)c12 [Example 8]                   =    0.001

====

Biological target: human EGFR L858R/T790M (NIH/3T3 cells) (Homo sapiens, UniProt P00533, L858R/T790M)
Test: EGFR target modulation in engineered NIH/3T3 cell lines (phospho-EGFR Y1068 AlphaLISA), EGFR L858R/T790M
Type: cell-based
Settings: engineered NIH/3T3 cells, read-out: NIH3T3 IC50 (μM) EGFR (L858R/T790M)
Experimental: EGFR Target Modulation in Engineered NIH/3T3 Cell Lines Tissue Culture. The cells were harvested with 0.05% Trypsin/EDTA (Hyclone #SH30236.01), re-suspended in 5% FBS/DMEM Pen/Strep without Puromycin and plated at 9,000 cells per well in 50 μl of media in a 384-well black plate with clear bottoms (Greiner #789068G). […] With these parameters, the IC50's for each compound in each cell line was calculated using non-linear curve fitting analysis.
Measured Property: IC50 (µM)

> print(dat)
                                    compound  censoring.operator  reading
 1  Cc1cccc2nc(NC(=O)c3ccnnc3)n([C@@H]3CCCCN(C(=O)C4=COCCO4)C3)c12 [Example 17-89]                   =      7.5
 2  Cc1cccc2nc(NC(=O)c3ccnc(OC(F)F)c3)n([C@@H]3CCCCN(C(=O)/C=C/CN(C)C)C3)c12 [Example 17-103]                   <    0.001
 3  Cc1cccc2nc(NC(=O)c3ccncc3)n(C3CCCCN(C(=O)/C=C/CN(C)C)C3)c12 (stereo not drawn) [Example 17-35]                   =    0.005
 4  C=CC(=O)N1CCCC[C@@H](n2c(NC(=O)c3cnnc(C)c3)nc3cc(CN4CCCC4)cc(C)c32)C1 [Example 17-161]                   =    0.009
 5  C=CC(=O)N1CCCC[C@@H](n2c(NC(=O)c3ccnc(C)c3)nc3cc(CN4CC(F)(F)C4)cc(C)c32)C1 [Example 17-153]                   =    0.001
 6  C=CC(=O)N1CCCC(n2c(NC(=O)c3cccc(C(F)(F)F)c3)nc3ccncc32)C1 (stereo not drawn) [Example 17-9]                   =    0.194
 7  Cc1cccc2nc(NC(=O)c3ccnc(OC(F)(F)F)c3)n([C@@H]3CCCCN(C(=O)/C=C/CN(C)C)C3)c12 [Example 17-102]                   =    0.002
 8  Cc1cccc2nc(NC(=O)c3ccc4nccn4c3)n(C3CCCCN(C(=O)/C=C/CN(C)C)C3)c12 (stereo not drawn) [Example 17-55]                   =    0.003
 9  Cc1cc(C(=O)Nc2nc3cccc(C)c3n2[C@@H]2CCCN(C(=O)/C=C/CN(C)C)C2)ccn1 [Example 17-4]                   =    0.058
10  C=CC(=O)N1CCOCC(n2c(NC(=O)c3cccc(C(F)(F)F)c3)nc3cccc(C)c32)C1 (single isomer, unassigned) [Example 21-7B]                   =    0.002
11  CC(C)Oc1cccc2nc(NC(=O)c3ccnnc3)n([C@@H]3CCCCN(C(=O)/C=C/CN(C)C)C3)c12 [Example 17-85]                   =     0.02
12  C=CC(=O)N1CCC[C@@H](n2c(NC(=O)c3cccc(C(F)(F)F)c3)nc3cc(C(=O)O)ccc32)C1 [Example 18]                   =      6.3
13  C=CC(=O)N1CCCC[C@@H](n2c(NC(=O)c3ccnc(C)c3)nc3cc(CN4CCCC4)cc(C)c32)C1 [Example 17-126]                   <    0.001
14  Cc1cc(C(=O)Nc2nc3cccc(C)c3n2[C@@H]2CCCCN(C(=O)/C=C/CN(C)C)C2)cc(Cl)n1 [Example 17-74]                   =    0.002
15  Cc1cccc2nc(NC(=O)c3cc(F)cc(F)c3)n(C3CCCCN(C(=O)/C=C/CN(C)C)C3)c12 (stereo not drawn) [Example 17-22]                   =    0.002
16  Cc1cccc2nc(NC(=O)c3cn4ccsc4n3)n(C3CCCCN(C(=O)/C=C/CN(C)C)C3)c12 (stereo not drawn) [Example 17-51]                   =     0.65
17  Cc1cccc2nc(NC(=O)c3ccc(F)cc3F)n(C3CCCCN(C(=O)/C=C/CN(C)C)C3)c12 (stereo not drawn) [Example 17-28]                   =     0.01
18  COc1ccc(C(=O)Nc2nc3cccc(C)c3n2C2CCCCN(C(=O)/C=C/CN(C)C)C2)cn1 (stereo not drawn) [Example 17-45]                   =    0.003
19  COc1ccc2nc(NC(=O)c3ccnnc3)n([C@@H]3CCCCN(C(=O)/C=C/CN(C)C)C3)c2c1Cl [Example 17-2]                   =    0.015
20  C=CC(=O)N1CCCC(n2c(NC(=O)c3cccc(C(F)(F)F)c3)nc3c2CN(C)CC3)C1 (stereo not drawn) [Example 17-173]                   =     0.84
21  C=CC(=O)N1CCC[C@@H](n2c(NC(=O)c3cccc(C(F)(F)F)c3)nc3cc(CN4CCOCC4)ccc32)C1 [Example 17-112]                   =    0.006

Cited source for all entries: patent US9440957B2
